Recorded values, source ChEMBL document CHEMBL3400058.

- Test system: Mus musculus
- experimentalDetails: Anticonvulsant activity in mouse assessed as decrease in convulsion frequency at 150 mg/kg, ip administered 20 mins prior to picrotoxin challenge relative to control
- Assay type: functional
- Design: scale not given: the % may be the effect or the level left
- settings: route intraperitoneal
assayEndpoint: Activity (%)
Your answer is read as %, so omit the unit and give the number.

Answered examples (2):
CC(=O)NNC(=O)CSc1nc2ccc(Cl)cc2c(=O)n1Cc1ccccc1	60
CCC(=O)NNC(=O)CSc1nc2cc(OC)c(OC)cc2c(=O)n1Cc1ccccc1	79

Noted for COc1cc2nc(SCC(=O)NNC(=S)NCc3ccccc3)n(Cc3ccccc3)c(=O)c2cc1OC : its Activity reads 66

---

- System: Mus musculus
- experimentalDetails: Anticonvulsant activity in mouse assessed as delay of death time at 150 mg/kg, ip administered 20 mins prior to picrotoxin challenge relative to control
- Assay type: functional
- settings: route intraperitoneal
Answer false if Activity is under 20%, and true if it is 20% or more.

CSc1nc2ccc(Cl)cc2c(=O)n1Cc1ccccc1	false
O=C(CSc1nc2ccc(Cl)cc2c(=O)n1Cc1ccccc1)NNC(=S)NCc1ccccc1	true
COc1cc2nc(SCC(=O)NNC(=O)Cc3ccccc3)n(Cc3ccccc3)c(=O)c2cc1OC	false
CCOC(=O)CSc1nc2ccc(Cl)cc2c(=O)n1Cc1ccccc1	false

(Q) Does COc1cc2nc(SCC(=O)NNC(=S)NCc3ccccc3)n(Cc3ccccc3)c(=O)c2cc1OC have a reported Activity of at least 20%?
(A) true

(Q) Answer whether Activity of COc1cc2nc(SCC(=O)NNC(=S)Nc3ccccc3)n(Cc3ccccc3)c(=O)c2cc1OC is greater than or equal to 20%.
(A) true

(Q) Test whether the compound CC(=O)NNC(=O)CSc1nc2ccc(Cl)cc2c(=O)n1Cc1ccccc1 records Activity of 20% or higher.
(A) true

(Q) Does Activity meet or surpass 20% for CCC(=O)NNC(=O)CSc1nc2cc(OC)c(OC)cc2c(=O)n1Cc1ccccc1 ?
(A) false

---

- experimentalDetails: Therapeutic index, ratio of LD50 for mouse to ED50 for anticonvulsant activity in mouse
- Assay type: organism-based
- settings: in vivo, read-out: Ratio LD50/ED50
assayEndpoint: selectivity ratio
The answer should be a number; do not append a unit.

Worked examples follow.
CCC(=O)NNC(=O)CSc1nc2ccc(Cl)cc2c(=O)n1-c1ccccc1	24.6
CCC(=O)NNC(=O)CSc1nc2cc(OC)c(OC)cc2c(=O)n1Cc1ccccc1	5.1
CC(=O)NNC(=O)CSc1nc2ccc(Cl)cc2c(=O)n1Cc1ccccc1	9.7

Entry O=C(CCc1ccccc1)NNC(=O)CSc1nc2ccc(Cl)cc2c(=O)n1Cc1ccccc1 — recorded selectivity ratio = 9.8

---

- System: Mus musculus
- experimentalDetails: Anticonvulsant activity in mouse assessed as decrease in convulsion frequency at 150 mg/kg, ip administered 20 mins prior to picrotoxin challenge relative to control
- Type: functional
- Set-up: scale not given: the % may be the effect or the level left
- settings: route intraperitoneal
Collected Activity values appear next to each entry.
Please give a number only; it is taken to be in %.

CCOC(=O)CSc1nc2ccc(Cl)cc2c(=O)n1Cc1ccccc1	25

Entry COc1cc2nc(SCC(=O)NNC(=O)Cc3ccccc3)n(Cc3ccccc3)c(=O)c2cc1OC ; Activity = 97
